List of EC50 values.
# test.target: UniProtKB Q8K1Z6
// note: answer is a bare numeric in nM

Answered cases to consult:
1. Cn1c(=O)[nH]c2nc(NCCc3c[nH]c4ccccc34)n(Cc3ccc(Cl)cc3)c2c1=O    290
2. Cn1c(=O)c2c(nc(NCCc3c[nH]c4ccccc34)n2Cc2ccc(F)cc2)n(C)c1=O    124
3. Cn1c(=O)c2c(nc(NCCc3c[nH]c4ccccc34)n2CCF)n(C)c1=O    2640
4. Cn1c(=O)c2c(nc(NCCc3c[nH]c4ccccc34)n2Cc2ccc(Cl)c(Cl)c2)n(C)c1=O    90
5. Cc1ccc(Cn2c(NCCc3c[nH]c4ccccc34)nc3c2c(=O)n(C)c(=O)n3C)cc1    46

# COC(=O)c1ccc(Cn2c(NCCc3c[nH]c4ccccc34)nc3c2c(=O)n(C)c(=O)n3C)cc1 with UniProtKB Q8K1Z6: EC50 is 488

# Cn1c(=O)c2c(nc(NCCc3c[nH]c4ccccc34)n2Cc2ccc(C(N)=O)cc2)n(C)c1=O with UniProtKB Q8K1Z6: EC50 is 4000

# C#CCn1c(NCCc2c[nH]c3ccccc23)nc2c1c(=O)n(C)c(=O)n2C with UniProtKB Q8K1Z6: EC50 is 318

----------
# test.target: UniProt:P21554
# Sequence (P21554 whole entry): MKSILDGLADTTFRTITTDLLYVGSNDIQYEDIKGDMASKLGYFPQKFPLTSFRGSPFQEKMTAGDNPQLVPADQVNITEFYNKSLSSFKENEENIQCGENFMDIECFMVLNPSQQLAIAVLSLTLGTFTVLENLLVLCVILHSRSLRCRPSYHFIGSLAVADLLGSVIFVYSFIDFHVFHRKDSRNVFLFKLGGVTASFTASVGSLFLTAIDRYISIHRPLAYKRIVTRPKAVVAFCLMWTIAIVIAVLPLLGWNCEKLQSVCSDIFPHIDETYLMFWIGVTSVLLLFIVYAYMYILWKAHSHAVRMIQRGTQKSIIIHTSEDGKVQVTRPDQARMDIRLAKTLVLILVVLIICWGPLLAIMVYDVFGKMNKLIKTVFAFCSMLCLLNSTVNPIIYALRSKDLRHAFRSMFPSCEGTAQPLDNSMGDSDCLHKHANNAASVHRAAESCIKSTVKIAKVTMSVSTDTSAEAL
# method: Displacement of [3H]-CP55940 from human CB1 receptor expressed in CHO cells assessed as inhibition constant by radioligand competition binding assay
# Format: cell-based
# condition.notes: read-out: Ki
List of pKi values.
A value of pKi is the negative decimal logarithm of a concentration given in moles per litre.

Answered cases to consult:
1. Cn1c(=O)c2c(nc(NCCc3c[nH]c4ccccc34)n2Cc2ccc(Cl)cc2)n(C)c1=O    5.93
2. Cc1ccc(Cn2c(NCCc3c[nH]c4ccccc34)nc3c2c(=O)n(C)c(=O)n3C)cc1    5.46

Per the records, this compound ( CC(C)c1ccc(Cn2c(NCCc3c[nH]c4ccccc34)nc3c2c(=O)n(C)c(=O)n3C)cc1 ) has pKi equal to 5.20

----------
List of pEC50 values.
# test.target: N-arachidonyl glycine receptor (Mus musculus, UniProt Q8K1Z6)
# Sequence (Q8K1Z6 whole entry): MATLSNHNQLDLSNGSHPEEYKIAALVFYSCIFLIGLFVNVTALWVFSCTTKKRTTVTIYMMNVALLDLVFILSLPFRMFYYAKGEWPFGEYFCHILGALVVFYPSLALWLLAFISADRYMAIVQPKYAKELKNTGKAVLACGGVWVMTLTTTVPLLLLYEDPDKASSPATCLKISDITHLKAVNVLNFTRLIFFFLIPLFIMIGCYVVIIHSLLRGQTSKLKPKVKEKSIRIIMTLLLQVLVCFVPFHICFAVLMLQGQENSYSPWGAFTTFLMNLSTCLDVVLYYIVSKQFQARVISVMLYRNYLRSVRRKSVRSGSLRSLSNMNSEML
A value of pEC50 is the negative decimal logarithm of a concentration given in moles per litre.

Answered cases to consult:
1) Cn1c(=O)c2c(nc(NCCc3c[nH]c4ccccc34)n2Cc2ccccc2)n(C)c1=O    6.71
2) CNS(=O)(=O)c1ccc(Cn2c(NCCc3c[nH]c4ccccc34)nc3c2c(=O)n(C)c(=O)n3C)cc1    5.44
3) Cn1c(=O)c2c(nc(NCCc3c[nH]c4ccccc34)n2Cc2ccc(F)c(F)c2)n(C)c1=O    6.79
4) Cn1c(=O)c2c(nc(NCCc3c[nH]c4ccccc34)n2Cc2ccc(Cl)cc2Cl)n(C)c1=O    6.61
5) Cn1c(=O)c2c(nc(NCCc3c[nH]c4ccccc34)n2Cc2cccc(Br)c2)n(C)c1=O    6.74
6) Cn1c(=O)c2c(nc(NCCc3c[nH]c4ccccc34)n2Cc2ccccc2Br)n(C)c1=O    6.81
7) Cn1c(=O)c2c(nc(NCCc3c[nH]c4ccccc34)n2Cc2ccccc2F)n(C)c1=O    6.89

Now consider the entry below.
Per the records, this molecule ( Cn1c(=O)c2c(nc(NCCc3c[nH]c4ccccc34)n2CCOc2ccc(Cl)cc2)n(C)c1=O ) has pEC50 equal to 6.35

Where do these numbers come from? They come from ChEMBL document CHEMBL5500402.
